Listed next: entries and their corresponding cytotoxicity.
- assay summary: viability loss of HPDE-C7K cells – cell-based, fluorescence, HTS, primary screen (AID 431);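 further: 0% = DMSO solvent wells and 100% = doxorubicin-treated wells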
- test conditions: HPDE-C7K KRASV12 cells, Alamar Blue viability, 48 h; at 10 µM; active compounds read high
Screen size: about 63,000 compounds; about 1,100 (1.7%) were called active. The list comes from a sample in which actives are over-represented; it also holds close analogues and randomly drawn compounds. Potency and affinity values are given separately.
Number only, in %; omit the unit.

CCOc1ccccc1N1CCN(c2nc3ccccc3nc2C(C#N)C(=O)OC(C)C)CC1 (stereo unspecified)    -18.6
C=CCOC(=O)C(C#N)c1nc2ccccc2nc1N1CCN(c2ccccc2OCC)CC1 (stereo unspecified)    4.2
Cc1ccc(S(=O)(=O)NC(C)C(=O)NC2CCCCCC2)cc1 (stereo unspecified)    1

Look at this molecule and give its reported cytotoxicity. `O=C(Nc1ncnc2sc3c(c12)CCCCC3)c1ccco1` 7.3

Which cytotoxicity reading was recorded for the molecule N#CC(C(=O)NCc1ccccc1)c1nc2ccccc2nc1N1CCCC1 (stereo unspecified) ? 8.4

# cytotoxicity lookup, item CCOc1ccccc1N1CCN(c2nc3ccccc3nc2C(C#N)C(=O)OC)CC1 (stereo unspecified) 50.6

cytotoxicity lookup needed for `COC(=O)Cc1csc(N)n1` , thanks. -19.5

Given the entry CCCCCCOC(=O)C(C#N)c1nc2ccccc2nc1N1CCN(CC)CC1 (stereo unspecified) , report its measured cytotoxicity. 5.9

Form field: reported cytotoxicity of `COC(=O)c1ccc(-n2nnnc2SCC(=O)N2CCCCC2)cc1` -30.4

Looking for the measured cytotoxicity of COc1ccc(CNC(=O)C(C#N)c2nc3ccccc3nc2N2CCN(C)CC2)cc1 (stereo unspecified) , can you help? 76.5

// returns reported cytotoxicity for input CCCCCCOC(=O)C(C#N)c1nc2ccccc2nc1N1CCCCC1 (stereo unspecified) -16.1

* * *

- assay summary: viability loss of HPDE-C7K cells – cell-based, fluorescence, HTS, primary screen (AID 431);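 further: 0% = DMSO solvent wells and 100% = doxorubicin-treated wells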
- test conditions: HPDE-C7K KRASV12 cells, Alamar Blue viability, 48 h; at 10 µM; active compounds read high
About 1,100 (1.7%) of roughly 63,000 compounds were called active. The full list was thinned out, with actives kept by preference. Entries with a potency or affinity are not part of this list.
Classify: yes when cytotoxicity is strictly less than 10%; no when cytotoxicity is not.

CSC1=NCCN1C(=O)Cc1ccc(Cl)cc1    yes
CCOC(=O)Cc1nn2c(=O)cc(C)nc2s1    yes
COC(=O)c1ccc(-c2nc3ccc(C)cc3o2)cc1    no
CCc1ccc2oc(-c3cccc(NC(=O)c4cccnc4)c3)nc2c1    no
COc1cc2c(cc1OC)CN(C(=O)CSc1nnc3scc(-c4ccccc4)n13)CC2    yes

cytotoxicity under 10%? Item: `CC(=O)N(c1ccc2oc(=O)sc2c1)S(=O)(=O)c1cccs1` no

Strictly below 10%: is that where cytotoxicity of `COc1ccc(-c2nc3cc(NC(=O)c4ccc5c(c4)OCO5)ccc3o2)cc1` sits? yes

hey, is cytotoxicity for `Cc1ccc(-c2nc3cc(C)ccc3o2)cc1` lower than 10% or not? yes

Is it true that cytotoxicity reported for `O=C(Nc1ccc2oc(Cc3ccc(Cl)cc3)nc2c1)c1cccnc1` is less than 10%? no

is_below(cytotoxicity, 10%) for `COc1ccc(OC)c(Nc2cc(C(=O)NCCCN3CCOCC3)c3ccccc3n2)c1` ? yes

Does `O=C(Nc1ccc2oc(-c3ccccc3)nc2c1)c1cccnc1` have cytotoxicity strictly under 10%? no
